# MEASURED TARGET: Serine/threonine-protein kinase TAO3 (Homo sapiens); also: in the data inactive means no Kd found up to 30 µM
# Sequence (Q9H2K8 whole entry): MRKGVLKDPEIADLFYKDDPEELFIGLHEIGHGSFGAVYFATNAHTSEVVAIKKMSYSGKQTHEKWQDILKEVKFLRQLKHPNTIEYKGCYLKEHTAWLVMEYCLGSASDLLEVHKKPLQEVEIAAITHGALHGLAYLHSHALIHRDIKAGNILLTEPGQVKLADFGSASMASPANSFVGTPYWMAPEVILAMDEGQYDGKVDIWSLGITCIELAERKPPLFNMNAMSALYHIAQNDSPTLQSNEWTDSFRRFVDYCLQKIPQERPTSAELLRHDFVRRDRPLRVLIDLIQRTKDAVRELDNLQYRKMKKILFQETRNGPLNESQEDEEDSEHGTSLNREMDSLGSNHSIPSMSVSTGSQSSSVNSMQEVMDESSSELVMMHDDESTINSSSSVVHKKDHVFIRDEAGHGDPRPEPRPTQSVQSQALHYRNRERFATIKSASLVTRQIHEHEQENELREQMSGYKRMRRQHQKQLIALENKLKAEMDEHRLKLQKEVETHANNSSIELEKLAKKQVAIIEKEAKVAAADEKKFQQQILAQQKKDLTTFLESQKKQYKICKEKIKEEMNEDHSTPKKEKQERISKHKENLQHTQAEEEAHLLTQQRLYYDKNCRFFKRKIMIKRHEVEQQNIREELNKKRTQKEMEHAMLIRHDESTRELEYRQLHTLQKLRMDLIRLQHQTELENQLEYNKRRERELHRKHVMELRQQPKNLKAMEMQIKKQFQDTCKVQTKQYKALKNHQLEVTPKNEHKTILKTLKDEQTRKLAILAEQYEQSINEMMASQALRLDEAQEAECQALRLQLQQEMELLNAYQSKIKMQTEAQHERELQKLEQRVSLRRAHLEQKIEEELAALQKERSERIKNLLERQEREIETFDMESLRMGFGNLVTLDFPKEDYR
Active and inactive are the calls of the source.
ASSAY ENDPOINT: Kd

In the examples that follow, each entry is paired with its recorded Kd.
COCc1c(-c2ccc(NC(=O)Nc3cc(C(F)(F)F)ccc3F)c(F)c2)c2c(N)ncnn2c1CN1CCOCC1    > 30 µM (inactive)
CNC(=O)c1cccc2cc(Oc3ccnc4cc(OCC5(N)CC5)c(OC)cc34)ccc12    > 30 µM (inactive)
CO[C@H]1C[C@@H]2CC[C@@H](C)[C@@](O)(O2)C(=O)C(=O)N2CCCC[C@H]2C(=O)O[C@H]([C@H](C)C[C@@H]2CC[C@@H](OP(C)(C)=O)[C@H](OC)C2)CC(=O)[C@H](C)/C=C(\C)[C@@H](O)[C@@H](OC)C(=O)[C@H](C)C[C@H](C)/C=C/C=C/C=C/1C    > 30 µM (inactive)
CNC(=O)c1nn(C)c2c1C(C)(C)Cc1cnc(Nc3ccc(N4CCN(C)CC4)cc3)nc1-2    10.6 µM (active)
COc1cc2ncnc(Oc3cccc(NC(=O)Nc4cc(C(C)(C)C(F)(F)F)on4)c3)c2cc1OC    > 30 µM (inactive)
C[C@@H](N)c1ccc(C(=O)Nc2ccnc3[nH]ccc23)cc1    > 30 µM (inactive)

Consider the record given below.
**Query** Please respond with reported Kd (system Serine/threonine-protein kinase TAO3 (Homo sapiens)) for `Cc1csc(-c2nnc(Nc3ccc(Oc4ncccc4-c4ccnc(N)n4)cc3)c3ccccc23)c1` . Also: in the data inactive means no Kd found up to 30 µM.
**Result** 1.77 µM (active)

* * *

# MEASURED TARGET: Cyclin-dependent kinase 2 (Homo sapiens); also: in the data inactive means no Kd found up to 30 µM
Active and inactive are the calls of the source.
Respond with a class label; see TRUE for active, FALSE for inactive

Below, 5 compounds whose answers are already recorded.
NC(=O)Nc1cc(-c2cccc(F)c2)sc1C(=O)N[C@H]1CCCNC1 [AZD-7762]    FALSE
O=C(Cc1ccc(-c2ccc(OCCN3CCOCC3)cc2)cn1)NCc1ccccc1 [TIRBANIBULIN]    FALSE
CC(C)(C)c1nc(-c2cccc(NS(=O)(=O)c3c(F)cccc3F)c2F)c(-c2ccnc(N)n2)s1 [DABRAFENIB]    TRUE
C[C@@H](NC(=O)c1ncnc(N)c1Cl)c1ncc(C(=O)Nc2cc(C(F)(F)F)c(Cl)cn2)s1 [TOVORAFENIB]    FALSE
C=CC(=O)N1CCC[C@H](n2c(=O)n(-c3ccc(Oc4ccccc4)cc3)c3c(N)ncnc32)C1    FALSE

Next up:
**Query** So what was the verdict on COc1cc([C@@H]2c3cc4c(cc3[C@H](O)[C@H]3COC(=O)[C@@H]23)OCO4)cc(OC)c1OC [AXL-1717] in this test?
**Result** FALSE

* * *

# MEASURED TARGET: Activin receptor type-1B (Homo sapiens); also: in the data inactive means no Kd found up to 30 µM
# Sequence (P36896 whole entry): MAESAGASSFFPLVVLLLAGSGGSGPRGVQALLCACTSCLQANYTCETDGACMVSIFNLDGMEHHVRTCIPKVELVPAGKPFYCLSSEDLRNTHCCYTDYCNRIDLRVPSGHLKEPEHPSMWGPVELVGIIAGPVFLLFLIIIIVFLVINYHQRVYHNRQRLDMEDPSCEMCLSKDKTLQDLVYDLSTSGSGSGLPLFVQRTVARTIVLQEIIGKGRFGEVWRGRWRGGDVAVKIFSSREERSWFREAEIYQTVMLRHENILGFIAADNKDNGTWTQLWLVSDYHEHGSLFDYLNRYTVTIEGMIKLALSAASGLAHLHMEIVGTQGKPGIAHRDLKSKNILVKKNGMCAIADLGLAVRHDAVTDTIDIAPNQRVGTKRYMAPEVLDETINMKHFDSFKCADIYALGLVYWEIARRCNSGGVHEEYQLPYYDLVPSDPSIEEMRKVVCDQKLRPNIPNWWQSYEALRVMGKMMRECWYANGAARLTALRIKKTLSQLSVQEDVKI
The source made the active and inactive calls.
Please answer using one outcome listed in active, inactive

**Query** I would be grateful if you could indicate the recorded call for `CC(C)(C)c1nc(-c2cccc(NS(=O)(=O)c3c(F)cccc3F)c2F)c(-c2ccnc(N)n2)s1` .
**Result** active

**Query** Which outcome was entered for the compound `COCc1c(-c2ccc(NC(=O)Nc3cc(C(F)(F)F)ccc3F)c(F)c2)c2c(N)ncnn2c1CN1CCOCC1` in this test?
**Result** inactive

**Query** Dear colleague, could you share the recorded outcome for `CCOc1cc2ncc(C#N)c(Nc3ccc(F)c(Cl)c3)c2cc1NC(=O)/C=C/CN(C)C` when you have a moment?
**Result** inactive

**Query** Identify the outcome logged in this assay for the compound shown: `CCn1c(C(=O)N(C2CC2)C2CC2)cc2c3c(ncn3C)c(Nc3cc(C)n(C)n3)nc21`
**Result** inactive

**Query** What call does the record list for `COCC(=O)NC/C=C/c1ccc2ncnc(Nc3ccc(Oc4ccc(C)nc4)c(C)c3)c2c1` ?
**Result** inactive

**Query** Call for entry O=C1NC(=O)[C@@H](c2cn3c4c(cccc24)CCC3)[C@@H]1c1c[nH]c2ccccc12 [TIVANTINIB] :
**Result** inactive

**Query** Per the records of this test, what outcome belongs to `C[C@@H](Oc1cc(C(=O)Nc2ccc(C(=O)N3CCN(C)CC3)cc2)nnc1N)c1c(Cl)ccc(F)c1Cl` ?
**Result** inactive

**Query** Any idea what this test logged for `CO[C@H]1C[C@@H]2CC[C@@H](C)[C@@](O)(O2)C(=O)C(=O)N2CCCC[C@H]2C(=O)O[C@H]([C@H](C)C[C@@H]2CC[C@@H](OP(C)(C)=O)[C@H](OC)C2)CC(=O)[C@H](C)/C=C(\C)[C@@H](O)[C@@H](OC)C(=O)[C@H](C)C[C@H](C)/C=C/C=C/C=C/1C` ?
**Result** inactive

* * *

# MEASURED TARGET: Discoidin domain-containing receptor 2 (Homo sapiens, UniProt Q16832); also: in the data inactive means no Kd found up to 30 µM
# Sequence (Q16832 whole entry): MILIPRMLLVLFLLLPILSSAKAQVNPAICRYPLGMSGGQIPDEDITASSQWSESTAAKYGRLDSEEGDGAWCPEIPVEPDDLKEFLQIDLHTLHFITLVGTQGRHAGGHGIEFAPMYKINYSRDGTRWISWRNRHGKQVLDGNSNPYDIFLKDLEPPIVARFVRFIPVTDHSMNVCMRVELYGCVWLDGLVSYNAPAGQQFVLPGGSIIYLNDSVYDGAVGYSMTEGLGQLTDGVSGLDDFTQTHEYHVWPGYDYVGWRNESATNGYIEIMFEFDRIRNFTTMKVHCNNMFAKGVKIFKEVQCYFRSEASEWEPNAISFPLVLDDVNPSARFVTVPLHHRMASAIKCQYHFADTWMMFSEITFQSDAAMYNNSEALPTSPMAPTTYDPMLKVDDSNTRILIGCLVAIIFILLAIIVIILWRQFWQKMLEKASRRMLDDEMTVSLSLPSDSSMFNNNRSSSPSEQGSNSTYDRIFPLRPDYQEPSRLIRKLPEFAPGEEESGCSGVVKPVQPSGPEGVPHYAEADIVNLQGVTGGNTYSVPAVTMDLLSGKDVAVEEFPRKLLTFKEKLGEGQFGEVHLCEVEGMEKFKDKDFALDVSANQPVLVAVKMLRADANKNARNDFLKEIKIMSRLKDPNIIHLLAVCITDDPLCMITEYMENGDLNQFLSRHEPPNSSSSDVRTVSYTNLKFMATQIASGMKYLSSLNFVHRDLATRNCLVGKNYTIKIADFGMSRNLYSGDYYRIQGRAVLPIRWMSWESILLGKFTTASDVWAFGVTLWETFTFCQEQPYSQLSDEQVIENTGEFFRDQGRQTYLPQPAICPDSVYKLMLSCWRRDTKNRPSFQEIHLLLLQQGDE
The source made the active and inactive calls.
Returns: one label drawn from active, inactive

Worked set:
CO[C@H]1C[C@@H]2CC[C@@H](C)[C@@](O)(O2)C(=O)C(=O)N2CCCC[C@H]2C(=O)O[C@H]([C@H](C)C[C@@H]2CC[C@@H](OC(=O)C(C)(CO)CO)[C@H](OC)C2)CC(=O)[C@H](C)/C=C(\C)[C@@H](O)[C@@H](OC)C(=O)[C@H](C)C[C@H](C)/C=C/C=C/C=C/1C    inactive
CNC(=O)c1nn(C)c2c1C(C)(C)Cc1cnc(Nc3ccc(N4CCN(C)CC4)cc3)nc1-2    active
O=C(Nc1nc2cccc(-c3ccc(CN4CCS(=O)(=O)CC4)cc3)n2n1)C1CC1    inactive

**Query** So what was the verdict on `COc1cc2ncnc(Oc3cccc(NC(=O)Nc4cc(C(C)(C)C(F)(F)F)on4)c3)c2cc1OC` in this test?
**Result** active

**Query** Given `Cn1cc(-c2cnc3ccc4ccc(CS(=O)(=O)NCc5ccccn5)cc4c(=O)c3c2)cn1` , state the outcome it received in this test.
**Result** inactive

**Query** Per the assay record, what outcome was assigned to `Nc1ncnc2c1c(-c1cccc(OCc3ccccc3)c1)cn2[C@H]1C[C@@H](CN2CCC2)C1` ?
**Result** inactive

* * *

# MEASURED TARGET: Uncharacterized protein FLJ45252 (Homo sapiens, UniProt Q6ZSR9); also: in the data inactive means no Kd found up to 30 µM
# Sequence (Q6ZSR9 whole entry): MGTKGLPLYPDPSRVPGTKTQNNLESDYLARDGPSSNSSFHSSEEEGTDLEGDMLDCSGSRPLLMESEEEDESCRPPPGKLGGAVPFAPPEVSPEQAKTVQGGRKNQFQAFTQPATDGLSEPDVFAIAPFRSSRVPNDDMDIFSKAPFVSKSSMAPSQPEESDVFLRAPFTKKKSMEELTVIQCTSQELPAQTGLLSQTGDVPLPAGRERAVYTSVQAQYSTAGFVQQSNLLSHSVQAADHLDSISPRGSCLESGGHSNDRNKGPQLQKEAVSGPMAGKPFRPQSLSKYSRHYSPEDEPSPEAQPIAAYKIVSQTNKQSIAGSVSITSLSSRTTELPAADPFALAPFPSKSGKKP
# PROTOCOL CONDITIONS: read-out: Kd apparent; k-562, colo 205, sk-n-be(2) and mv-4-11
Calls of active or inactive are those of the source. Rule as the data show it: actives have a measured Kd and inactives only a lower limit.
ASSAY ENDPOINT: Kd

**Query** Identify measured Kd associated with `CO[C@H]1C[C@@H]2CC[C@@H](C)[C@@](O)(O2)C(=O)C(=O)N2CCCC[C@H]2C(=O)O[C@H]([C@H](C)C[C@@H]2CC[C@@H](OC(=O)C(C)(CO)CO)[C@H](OC)C2)CC(=O)[C@H](C)/C=C(\C)[C@@H](O)[C@@H](OC)C(=O)[C@H](C)C[C@H](C)/C=C/C=C/C=C/1C`
**Result** > 30 µM (inactive)

**Query** Note Kd for the molecule shown: `CCCCCCCCCCCCCCCCCCOP(=O)([O-])OC1CC[N+](C)(C)CC1`
**Result** > 30 µM (inactive)

**Query** Could you please provide reported Kd for `O=C(Cc1ccc(-c2ccc(OCCN3CCOCC3)cc2)cn1)NCc1ccccc1` ? Thanks!
**Result** > 30 µM (inactive)
